// IC50 lookup, one value per entry
Target: KRas^G12D (Homo sapiens, UniProt P01116, G12D)
Construct: […]; biotin (biotinylated)
Sequence (P01116 1-169 isoform P01116-2 G12D): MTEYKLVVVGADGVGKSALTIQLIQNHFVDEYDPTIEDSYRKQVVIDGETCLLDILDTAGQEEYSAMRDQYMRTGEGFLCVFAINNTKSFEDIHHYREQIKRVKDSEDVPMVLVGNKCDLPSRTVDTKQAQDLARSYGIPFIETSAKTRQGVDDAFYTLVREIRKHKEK
Assay: KRas binding assay (TR-FRET displacement of Cy5 labelled tracer)

Study these solved cases before continuing.
Molecule	IC50
CC1(O)COCCN(c2nc(OC[C@@]34CCCN3C[C@H](F)C4)nc3c2CCN(c2cc(O)cc4ccc(F)c(Cl)c24)C3)C1 (stereo partly drawn)	≤ 2 nM
CCc1c(F)ccc2cc(O)cc(N3CCc4c(nc(OC[C@@]56CCCN5C[C@H](F)C6)nc4N4CCCn5nc(C(=O)N(C)C)c(Cl)c5C4)C3)c12	≤ 2 nM

Lab note: next molecule to report on.
IC50 in this record for CCc1cccc2cccc(N3CCc4c(nc(OCC56CCCN5CCC6)nc4N4CCOCC(n5cncn5)C4)C3)c12 (stereo not drawn) : 1110 nM

###

// reported IC50 for each item listed
Tested on: HCT116 cells, pERK
Experiment: Inhibition of KRas phosphorylation of ERK (Cisbio HTRF Advanced pERK assay)
Assay type: cell-based
Settings: Homo sapiens, HCT-116, 3 hrs, read-out: Inhibition (HTRF IC50 nM) of KRas-mediated Phosphorylation of ERK, HCT116
API: value field is a number in nM; no unit string.

Worked examples follow.
Compound	Scale unit	IC50
CCc1c(F)ccc2cc(O)cc(N3CCc4c(nc(OCC5(CN(C)C)CC5)nc4N4CCCC5(C4)NC(=O)NC5=O)C3)c12 (stereo not shown)	nM	49
O=C1NC(=O)C2(CCCN(c3nc(OC[C@@]45CCCN4C[C@H](F)C5)nc4c3CCN(c3cc(O)cc5ccc(F)c(Br)c35)C4)C2)N1 (stereo partly shown)	nM	227
CCc1c(F)ccc2cc(O)cc(N3CCc4c(nc(OC[C@@]56CCCN5C[C@H](F)C6)nc4N4CCCC5(CC(O)C5)C4)C3)c12 (stereo partly shown)	nM	1120
CCc1c(F)ccc2cc(O)cc(N3CCc4c(nc(OC[C@@]56CCCN5C[C@H](F)C6)nc4N4CC5CC(O)C(C5)C4)C3)c12 (stereo partly shown)	nM	1170
CCc1c(F)ccc2cc(O)cc(N3CCc4c(nc(OC[C@@]56CCCN5C[C@H](F)C6)nc4N4CCC[C@]5(C4)NC(=O)NC5=O)C3)c12	nM	5

Query CCc1c(F)ccc2cc(O)cc(N3CCc4c(nc(OC[C@@]56CCCN5C[C@H](F)C6)nc4N4CCCC5(CNS(=O)(=O)N5)C4)C3)c12 (stereo partly shown) yields IC50 of 2380

compound O=C1NCC2(CCCN(c3nc(OC[C@@]45CCCN4C[C@H](F)C5)nc4c3CCN(c3cc(O)cc5ccc(F)c(Br)c35)C4)C2)N1 (stereo partly shown) , IC50 observed: 531

###

Molecular target: KRas^G12C (Homo sapiens, UniProt P01116, G12C)
Sequence (P01116 1-169 isoform P01116-2 G12C): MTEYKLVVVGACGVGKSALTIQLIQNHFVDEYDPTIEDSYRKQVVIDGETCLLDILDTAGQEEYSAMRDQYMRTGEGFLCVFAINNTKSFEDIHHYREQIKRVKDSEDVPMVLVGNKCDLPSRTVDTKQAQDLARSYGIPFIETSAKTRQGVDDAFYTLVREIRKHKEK
Test: biochemical
pIC50: −log10 of the molar value.
Please use 1 (yes) whenever pIC50 is not below 6, and 0 (no) whenever it is.

Is pIC50 at least 6? Consider CCc1cccc2cccc(N3CCc4c(nc(OCC56CCCN5CCC6)nc4N4CCCCCC(S(C)(=O)=O)C4)C3)c12 (stereo not shown)
1 (yes)

###

Reported pIC50 by item:
Molecular target: KRas^G12C (Homo sapiens, UniProt P01116, G12C)
Experiment: biochemical
Value format note: pIC50 is -log10 of concentration (mol/L); just state the number.

Compound	pIC50
CCc1cccc2cccc(N3CCc4c(nc(OCC56CCCN5CCC6)nc4N4CCCC(c5nc(N)n(C)n5)C4)C3)c12 (stereo not shown) [Example 84]	6.79
CCc1cccc2cccc(N3CCc4c(nc(OCC56CCCN5CCC6)nc4NC[C@H]4CCC(=O)N4)C3)c12 [Example 148]	5.51
CCc1cccc2cccc(N3CCc4c(nc(OCC56CCCN5CCC6)nc4NC4CC5CC5C4)C3)c12 (stereo not shown) [Example 170]	4.82
CCc1cccc2cccc(N3CCc4c(nc(OCC56CCCN5CCC6)nc4N4CC5(CNC(=O)N5)C4)C3)c12 [Example 149]	5.73
CCc1cccc2cccc(N3CCc4c(nc(OCC56CCCN5CCC6)nc4N4CCn5ncc(S(C)(=O)=O)c5C4)C3)c12 [Example 144]	5.30
CCc1cccc2cccc(N3CCc4c(nc(OCC56CCCN5CCC6)nc4N4CCOCC(O)C4)C3)c12 (stereo not shown) [Example 6]	7.06

# context switch: different compound, same pIC50
Looking up CCc1cccc2cccc(N3CCc4c(nc(OCC56CCCN5CCC6)nc4N4CCCn5nc(N)cc5C4)C3)c12 [Example 10] , I found its pIC50 recorded as 7.09
